- Assay Details: Inhibition of Coniochaeta sp. FPOX-C CFP-T7 mutant using Fru-ValHis as substrate by Dixon plot analysis
Property: Ki (µM)
Answer with a number only, understood to be in µM.

query: Bench note: what Ki did CC(C)[C@H](SC[C@@]1(O)OC[C@@H](O)[C@@H](O)[C@@H]1O)C(=O)O show?
result: 11.1

query: Look at this compound and give its reported Ki. CC(C)[C@H](SC[C@@]1(O)OC[C@@H](O)[C@@H](O)[C@@H]1O)C(=O)N[C@@H](Cc1c[nH]cn1)C(=O)O
result: 66.8

query: Which Ki is listed for N[C@@H](CCCCSC[C@@]1(O)OC[C@@H](O)[C@@H](O)[C@@H]1O)C(=O)O ?
result: 782
